target: UniProtKB P10636; assay: Tau competition binding in human AD brain homogenate with 18F-labeled Tau binder; conditions: IC50 in AD brain homogenate; non-radioactive fluorine-19 derivatives; read-out: high Tau binding
Sequence (P10636 623-708 limits assumed): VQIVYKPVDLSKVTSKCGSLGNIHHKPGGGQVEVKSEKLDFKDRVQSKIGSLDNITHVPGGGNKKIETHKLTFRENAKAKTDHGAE
attribute.measured: IC50 (nM)

The cases that follow already have their IC50 on record.
{"columns": ["structure", "IC50 (nM)"],
 "data": [
  ["Fc1cccc(-c2ccc3c(n2)[nH]c2ccncc23)n1", 7.1],
  ["Fc1cccnc1-c1ccc2c(n1)[nH]c1ccncc12", 103],
  ["Fc1ccnc(-c2ccc3c(n2)[nH]c2ccncc23)c1", 8.4]
]}

[1] Fc1cncc(-c2ccc3c(n2)[nH]c2ccncc23)c1
[2] Fc1ccncc1-c1ccc2c(n1)[nH]c1ccncc12
Which has the smaller recorded IC50, 1 or 2 ? When you have decided, please share the label of that item.
1
